- Protocol details: Artificial membrane permeability (AMP)
- Type: in vitro ADME
- Setup conditions: PAMPA, pH 7.4
# Papp at 3 h listing for each entry below
# value in nm/s; strip the unit string

Known Papp at 3 h results, listed for orientation:
# Compound, Papp at 3 h [nm/s]
rows = [
    ("COc1ccc(N2C(=O)c3[nH]nc(CC(C)C)c3C2c2ccccc2F)cc1 (stereo not shown)", 230),
    ("COc1ccc(N2C(=O)c3[nH]nc(CC(C)C)c3C2c2ccccc2Cl)cc1 (stereo not shown)", 330),
]

Please find the next compound below.
Prompt: // fetch Papp at 3 h given entry COc1ccc(N2C(=O)c3[nH]nc(CC(C)C)c3C2c2ccc(F)cn2)cc1 (stereo not shown)
Response: 490
